Tested on: Magnaporthe grisea
Format: cell-based
condition.context: statement in words
measured.parameter: inhibition of germination-associated adhesion

CCCN(CCOc1c(Cl)cc(Cl)cc1Cl)C(=O)n1ccnc1 [prochloraz]; little or no activity
COC(=O)NC(=S)Nc1ccccc1NC(=S)NC(=O)OC [thiophanate-methyl]; little or no activity

---

Test system: Botrytis
experiment.description: Mycelial growth inhibition, poison agar assay
condition.context: Botrytis, 72 h, read-out: Mycelial Growth Inhn. EC50 (ppm)
Kindly state EC50 for each of the entries shown.
Provide the reading as a plain figure in µg/mL.

Recorded EC50 of Cc1cc(C)nc(Nc2ccccc2)n1 , please. 0.48

Recorded EC50 of CO/N=C(/C(=O)OC)c1ccccc1COc1ccccc1C , please. 0.28

Recorded EC50 of CN(C)C(=S)SSC(=S)N(C)C , please. 0.78

Recorded EC50 of N#Cc1c[nH]cc1-c1cccc(Cl)c1Cl , please. 0.0015

Recorded EC50 of N#Cc1c(Cl)c(Cl)c(Cl)c(C#N)c1Cl , please. 0.35

Recorded EC50 of O=[N+]([O-])c1cc(C(F)(F)F)c(Cl)c([N+](=O)[O-])c1Nc1ncc(C(F)(F)F)cc1Cl , please. 0.033

Recorded EC50 of C=CC1(C)OC(=O)N(c2cc(Cl)cc(Cl)c2)C1=O (stereo not drawn) , please. 0.11

Recorded EC50 of O=C1c2ccccc2C(=O)N1SC(Cl)(Cl)Cl , please. 5.5

Recorded EC50 of COC(=O)Nc1nc2ccccc2[nH]1 , please. 0.045

---

System: Magnaporthe grisea
Type: cell-based
condition.context: inhibition of adhesion, YEG, 25°C, 6 hours
Kindly state EC50 (ppm) for each of the entries shown.
Provide the reading as a plain figure in ppm.

// lookup EC50 (ppm) | system=Magnaporthe grisea | key= CO/N=C(/C(=O)OC)c1ccccc1COc1ccccc1C 0.067

// lookup EC50 (ppm) | system=Magnaporthe grisea | key= COC(=O)NC(=S)Nc1ccccc1NC(=S)NC(=O)OC [thiophanate-methyl] 7.5

// lookup EC50 (ppm) | system=Magnaporthe grisea | key= CO/C=C(/C(=O)OC)c1ccccc1Oc1cc(Oc2ccccc2C#N)ncn1 0.064

// lookup EC50 (ppm) | system=Magnaporthe grisea | key= N#Cc1c(Cl)c(Cl)c(Cl)c(C#N)c1Cl 0.038

---

System: Colletotrichum lagenarium
experiment.description: Mycelial growth inhibition, poison agar assay
Assay type: cell-based
measured.parameter: Mycelial Growth Inhn. EC50 (ppm)

Recorded Mycelial Growth Inhn. EC50 (ppm) of CO/N=C(/C(=O)OC)c1ccccc1COc1ccccc1C , please. >10 ppm

Recorded Mycelial Growth Inhn. EC50 (ppm) of COC(=O)Nc1nc2ccccc2[nH]1 , please. 0.060 ppm

Recorded Mycelial Growth Inhn. EC50 (ppm) of O=[N+]([O-])c1cc(C(F)(F)F)c(Cl)c([N+](=O)[O-])c1Nc1ncc(C(F)(F)F)cc1Cl , please. 0.017 ppm

Recorded Mycelial Growth Inhn. EC50 (ppm) of CO/C=C(/C(=O)OC)c1ccccc1Oc1cc(Oc2ccccc2C#N)ncn1 , please. >10 ppm

Recorded Mycelial Growth Inhn. EC50 (ppm) of N#Cc1c(Cl)c(Cl)c(Cl)c(C#N)c1Cl , please. 7.10 ppm
